Origin of values: ChEMBL document CHEMBL5058577

Please respond with reported Population Mitotic Cells (%) for every item in the list.
system: U2OS; assay: Multiplex assay against U2OS; type: toxicity, cell-based; settings: human, 24 h, 10 µM, compound concentration 10 uM, replicate 2
// units = %; emit number, no label

Challenge: // query Population Mitotic Cells (%) value for entry C[C@H]1[C@H]2CC[C@H]3[C@@H]4CC=C5C[C@@H](N(C)C)CC[C@]5(C)[C@H]4CC[C@]23CN1C
Response given: 0

Challenge: Tell me the measured Population Mitotic Cells (%) of O=C1COc2nccc(-c3ccccc3F)c2CN1Cc1cc(C(F)(F)F)cc(C(F)(F)F)c1 , please.
Response given: 0

Challenge: Please give the measured Population Mitotic Cells (%) for this compound: C[C@@H]1C[C@H]2[C@@H]3CCC4=CC(=O)C=C[C@]4(C)[C@@]3(F)[C@@H](O)C[C@]2(C)[C@@]1(O)C(=O)CO
Response given: 25

Challenge: Record request: Population Mitotic Cells (%) value, item CSCC[C@H](NC=O)C(=O)N[C@@H](CC(C)C)C(=O)N[C@@H](Cc1ccccc1)C(=O)O
Response given: 0
